TARGET_SYSTEM: T1, biotinylated cynomolgus monkey VWF cysteine knot (CK) domain construct (cynomolgus monkey, biotinylated in vitro (BirA) on the biotinylation tag; one N-glycan)
T1 construct: Expressed in HEK293 EBNA cells; disulfide-linked homodimer; also called cyno VWF CK; cyno VWF CK domain; not shown: in vitro biotinylation tag, HRV-3C site and 3 VWF residues before the CK domain
T1 chain: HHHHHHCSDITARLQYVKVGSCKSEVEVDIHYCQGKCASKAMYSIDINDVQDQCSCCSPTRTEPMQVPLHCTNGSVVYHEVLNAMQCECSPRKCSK
ASSAY_OVERVIEW: SPR, scFv captured via anti-SV5, CK domain injected, pH 7.4, apparent Kd;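 further: scFvs from crude yeast supernatants printed on an amine-coupled anti-SV5 lawn, Kd computed as koff over kon, likely overestimating affinity because the CK construct is dimeric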
Form field: Kd (one value per entry).
Write the quantity with the unit trailing the number.

BINDER	Kd
Lib1_P1_A5_scFv (scFv, VH-linker-VL; not shown: C-terminal 3xFLAG and SV5 tags) scFv: QVQLVQSGAEVKKPGASVKVSCKVSGDTLSNYAIHWVRQAPGKGLEWMGGINPNAGTTIYAQKFQGRVTMTEDTSTDTAYMELSSLKSEDTAVYYCARDSSSWCPVGYYYYYMDVWGKGTTVTVSSSGGSTITSYNVYYTKLSSSGTDIQMTQSPSSVSASVGDRVTITCRASQSIGDFLAWYQQKPGKAPKLLIYDASHLQTGVPSRFSGSGSGTDFTLTISSLQPEDFANYYCQQTSTIPPTFGGGTKVEIK	1.74 nM
15244_Lib8_scFv (scFv, VH-linker-VL; not shown: C-terminal 3xFLAG and SV5 tags) scFv: EVQLVESGGGLVQPGRSLRLSCAASGFTFADYDMHWVRQAPGKGLEWVSATSSHGVTTDYADSVEGRFTISRDNAKNSLYLQMNSLRAEDTAVYYCARGAWSGIAARQYIDYWGQGTLVTVSSSGGSTITSYNVYYTKLSSSGTDIQMTQSPSSLSASVGDRVTITCRASQTIGYWLAWYQQKPGKAPKLLIYDASVPESGVPSRFSGSGSGTDFTLTISSLQPEDVATYYCQQSYSYPLTFGGGTKVEIK	1.91 nM

Prompt: What Kd value was documented for this binder, Lib6_P3_A4_scFv (scFv, VH-linker-VL; not shown: C-terminal 3xFLAG and SV5 tags) scFv: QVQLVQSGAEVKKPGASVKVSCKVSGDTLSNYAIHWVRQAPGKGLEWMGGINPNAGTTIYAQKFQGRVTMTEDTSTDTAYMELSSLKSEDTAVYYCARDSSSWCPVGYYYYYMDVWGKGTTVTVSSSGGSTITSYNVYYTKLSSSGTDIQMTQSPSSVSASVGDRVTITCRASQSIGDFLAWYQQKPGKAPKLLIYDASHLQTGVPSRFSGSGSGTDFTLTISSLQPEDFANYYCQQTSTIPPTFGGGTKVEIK ?
Completion: 3.46 nM

All figures here come from patent US20250154283A1.
